# procedure.summary: self-splicing fitness, log relative to wild type (ln ratio); higher = more splicing; Tetrahymena group I intron in knt gene, E. coli kanamycin selection, DiMSum; sequences stand for … in CUCUCU…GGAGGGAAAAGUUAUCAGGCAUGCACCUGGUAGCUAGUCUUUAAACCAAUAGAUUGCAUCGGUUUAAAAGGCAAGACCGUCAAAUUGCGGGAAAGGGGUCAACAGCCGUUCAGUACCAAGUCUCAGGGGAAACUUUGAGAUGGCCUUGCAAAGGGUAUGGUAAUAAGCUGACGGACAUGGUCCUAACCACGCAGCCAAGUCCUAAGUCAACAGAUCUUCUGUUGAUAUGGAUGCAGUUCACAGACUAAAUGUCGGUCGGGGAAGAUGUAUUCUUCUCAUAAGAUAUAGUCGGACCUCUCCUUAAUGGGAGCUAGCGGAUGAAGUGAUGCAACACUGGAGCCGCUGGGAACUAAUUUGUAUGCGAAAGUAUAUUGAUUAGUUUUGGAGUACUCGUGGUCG;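 also: selection with 25 µg/mL kanamycin versus none on LB agar overnight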
# measurement.conditions: 30 °C

input.sequence: ACGCAGCAAUAUUACGAAAA
self-splicing fitness (ln): -2.91
//
input.sequence: ACGAAGCAAUAUUACGUCGU
self-splicing fitness (ln): -3.41
//
input.sequence: AACCAGCAAUAUUACGAGAC
self-splicing fitness (ln): -3.67
//
input.sequence: CGUUAGCAAUAUUACGCUGG
self-splicing fitness (ln): -1.45
//
input.sequence: CGCAAGCAAUAUUACGUCUU
self-splicing fitness (ln): -4.05
//
input.sequence: GUCUAGCAAUAUUACGCAGU
self-splicing fitness (ln): -1.25
//
input.sequence: AUGGAGCAAUAUUACGCGUU
self-splicing fitness (ln): -3.93
//
input.sequence: ACUCAGCAAUAUUACGCCCG
self-splicing fitness (ln): -1.62
//
input.sequence: GCGGAGCAAUAUUACGGCGG
self-splicing fitness (ln): -3.3
//
input.sequence: CCGAAGCAAUAUUACGUAAA
self-splicing fitness (ln): -3.14
//
input.sequence: AGCUAGCAAUAUUACGCGGU
self-splicing fitness (ln): -4.02
//
input.sequence: AGAAAGCAAUAUUACGGAGU
self-splicing fitness (ln): -2.55
//
input.sequence: CGUAAGCAAUAUUACGUUCU
self-splicing fitness (ln): -1.61
//
input.sequence: ACUUAGCAAUAUUACGUGGU
self-splicing fitness (ln): -3.62
//
input.sequence: CACGAGCAAUAUUACGGGCA
self-splicing fitness (ln): -2.84
//
input.sequence: AUAUAGCAAUAUUACGAGCG
self-splicing fitness (ln): -2.19
//
input.sequence: CCAAAGCAAUAUUACGCGGU
self-splicing fitness (ln): -4.85
//
input.sequence: GCUAAGCAAUAUUACGUAUA
self-splicing fitness (ln): -1.76
//
input.sequence: AGAUAGCAAUAUUACGGCCU
self-splicing fitness (ln): -0.604
//
input.sequence: CUUAAGCAAUAUUACGGAUC
self-splicing fitness (ln): -1.71
//
input.sequence: UUACAGCAAUAUUACGGCGC
self-splicing fitness (ln): -2.88
//
input.sequence: AUGAAGCAAUAUUACGGGUG
self-splicing fitness (ln): -1.81
//
input.sequence: UCUCAGCAAUAUUACGUAGU
self-splicing fitness (ln): -1.71
//
input.sequence: GUAGAGCAAUAUUACGGAAC
self-splicing fitness (ln): -1.59
//
input.sequence: CCCUAGCAAUAUUACGCCUC
self-splicing fitness (ln): -3.29
//
input.sequence: CUCAAGCAAUAUUACGGGCU
self-splicing fitness (ln): -4.09
//
input.sequence: GGGAAGCAAUAUUACGUCGC
self-splicing fitness (ln): -1.83
//
input.sequence: GCACAGCAAUAUUACGCUAA
self-splicing fitness (ln): -1.6
//
input.sequence: CUGAAGCAAUAUUACGGAGA
self-splicing fitness (ln): -3.62
//
input.sequence: UGUGAGCAAUAUUACGUGCC
self-splicing fitness (ln): -2.51
//
input.sequence: ACGAAGCAAUAUUACGAGGC
self-splicing fitness (ln): -3.62
//
input.sequence: GCUGAGCAAUAUUACGACUG
self-splicing fitness (ln): -2.16
//
input.sequence: UCGAAGCAAUAUUACGUAUA
self-splicing fitness (ln): -3.1
//
input.sequence: CAUGAGCAAUAUUACGAUAC
self-splicing fitness (ln): -2.93
//
input.sequence: CGAGAGCAAUAUUACGCCUG
self-splicing fitness (ln): -3.12
//
input.sequence: CACUAGCAAUAUUACGGUUC
self-splicing fitness (ln): -2.4
//
input.sequence: ACUUAGCAAUAUUACGUCUU
self-splicing fitness (ln): -0.647
//
input.sequence: CGACAGCAAUAUUACGUGGG
self-splicing fitness (ln): -3.19
//
input.sequence: GAUGAGCAAUAUUACGAUGA
self-splicing fitness (ln): -2.24
//
input.sequence: GGGUAGCAAUAUUACGUCUA
self-splicing fitness (ln): -0.297
//
input.sequence: GGACAGCAAUAUUACGAGCG
self-splicing fitness (ln): -0.482
//
input.sequence: UAAGAGCAAUAUUACGGGGG
self-splicing fitness (ln): -2.94
//
input.sequence: GCGAAGCAAUAUUACGCUAA
self-splicing fitness (ln): -2.54
//
input.sequence: CGAUAGCAAUAUUACGGUCG
self-splicing fitness (ln): -4.36
//
input.sequence: GCUUAGCAAUAUUACGGCCC
self-splicing fitness (ln): 0.0255
//
input.sequence: GACCAGCAAUAUUACGGAUG
self-splicing fitness (ln): -0.62
//
input.sequence: UUAUAGCAAUAUUACGUCUG
self-splicing fitness (ln): -0.366
//
input.sequence: UAUGAGCAAUAUUACGCUAA
self-splicing fitness (ln): -1.99
//
input.sequence: GAUCAGCAAUAUUACGUCGG
self-splicing fitness (ln): -4.18
//
input.sequence: AGUGAGCAAUAUUACGGCUA
self-splicing fitness (ln): -0.705
//
input.sequence: GGCGAGCAAUAUUACGCCGA
self-splicing fitness (ln): -2.65
//
input.sequence: AUGUAGCAAUAUUACGGUCA
self-splicing fitness (ln): -0.793
//
input.sequence: CCAAAGCAAUAUUACGUAGG
self-splicing fitness (ln): -3.85
//
input.sequence: AGUGAGCAAUAUUACGUGCA
self-splicing fitness (ln): -2.06
//
input.sequence: UGAUAGCAAUAUUACGUAGA
self-splicing fitness (ln): -2.3
//
input.sequence: GGCGAGCAAUAUUACGCGAU
self-splicing fitness (ln): -3.7
//
input.sequence: UUCUAGCAAUAUUACGCCGA
self-splicing fitness (ln): -0.96
//
input.sequence: GAUUAGCAAUAUUACGCUUA
self-splicing fitness (ln): -1.22
//
input.sequence: CUCUAGCAAUAUUACGUGUC
self-splicing fitness (ln): -3.45
//
input.sequence: GAUGAGCAAUAUUACGCGAC
self-splicing fitness (ln): -1.69
//
input.sequence: CACCAGCAAUAUUACGCCAG
self-splicing fitness (ln): -0.583
//
input.sequence: AAGGAGCAAUAUUACGUGGU
self-splicing fitness (ln): -2.94
//
input.sequence: UUAUAGCAAUAUUACGCCAG
self-splicing fitness (ln): -1.64
//
input.sequence: CCUGAGCAAUAUUACGAGGC
self-splicing fitness (ln): -3.18
//
input.sequence: CCUCAGCAAUAUUACGCCCG
self-splicing fitness (ln): -0.527
//
input.sequence: UCCUAGCAAUAUUACGUGGU
self-splicing fitness (ln): -2.53
//
input.sequence: UAGCAGCAAUAUUACGCGUA
self-splicing fitness (ln): -1.2
